SSMD.LYZ.S: recorded values
Test system: ISC-enriched organoids
Assay: Primary screen, 384-well 2.5-D organoid differentiation (ENR+CD, 6 days): carbachol-induced lysozyme secretion (LYZ.S)
Format: cell-based, murine
Conditions: strictly standardized mean difference; primary screen; 1st of the 4 dose lines of the treatment (dose not given)

structure.notation: C[C@](O)(COc1ccc(C#N)cc1)C(=O)Nc1ccc(C#N)c(C(F)(F)F)c1
study.system: ISC-enriched organoids
SSMD.LYZ.S: 0.378
--
structure.notation: Oc1ccc2ccccc2c1SSc1c(O)ccc2ccccc12
study.system: ISC-enriched organoids
SSMD.LYZ.S: 0.356
--
structure.notation: COc1cc(-n2c(=S)[nH]c3ccccc3c2=O)c(Cl)cc1Cl
study.system: ISC-enriched organoids
SSMD.LYZ.S: 0.520
--
structure.notation: Cc1cnc(NC(=O)Nc2cc(Br)c(C)cc2OC[C@@H]2CNCCO2)cn1
study.system: ISC-enriched organoids
SSMD.LYZ.S: 0.065
--
structure.notation: CCC(CC)(NC(=O)C(C)C)C(=O)N[C@@H](CCCN=C(N)N)C(=O)NC1(C(=O)NC(c2ccc(F)cc2)c2ccc(F)cc2)CCCC1
study.system: ISC-enriched organoids
SSMD.LYZ.S: −0.148
--
structure.notation: O=C(c1cn(Cc2cncn2Cc2ccc(Br)cc2)cc1-c1cccc2ccccc12)N1CCOCC1
study.system: ISC-enriched organoids
SSMD.LYZ.S: −0.519
--
structure.notation: COc1ccc(-c2cnc3c(-c4cccc5ncccc45)cnn3c2)cc1
study.system: ISC-enriched organoids
SSMD.LYZ.S: 0.546

Origin of values: patent US20230398130A1
